target: c-Met kinase (recombinant c-Met) (Homo sapiens); construct: 0.27 nM recombinant c-Met; experiment: In vitro kinase assay I (homogeneous time-resolved fluorescence tyrosine kinase assay)
pIC50: −log10 of the molar value.
Exercise: state measured pIC50 for each of the compounds provided.

Print c-Met kinase (recombinant c-Met) (Homo sapiens) pIC50 for Cn1cc(-n2ccc(=O)c(Cc3cccc(NC(=O)OCCOC4CCCCC4)c3)n2)cn1 [Example 577] .
> 7.00

Write down the reported pIC50 (system: c-Met kinase (recombinant c-Met) (Homo sapiens)) of Cn1cc(-n2ccc(=O)c(Cc3cccc(-c4ncc(-c5ccc(N)nc5)cn4)c3)n2)cn1 [Example 419]
> 7.00

Name the recorded pIC50 of Cn1cc(-n2ccc(=O)c(Cc3cccc(-c4ncc(CN5CCCC5)cn4)c3)n2)cn1 [Example 429] , assay system c-Met kinase (recombinant c-Met) (Homo sapiens).
> 7.00

With c-Met kinase (recombinant c-Met) (Homo sapiens) as the test system, provide measured pIC50 for this compound: CCOc1cnc(-c2cccc(C(C)c3nn(-c4cccc(C#N)c4)ccc3=O)c2)nc1 (racemic) [Example 224]
> 7.00

Specify the recorded pIC50 for Cn1cc(-n2ccc(=O)c(Cc3cccc(NC(=O)OC4CCNCC4)c3)n2)cn1 [Example 618] , system: c-Met kinase (recombinant c-Met) (Homo sapiens).
6.00 to 7.00

# assay system c-Met kinase (recombinant c-Met) (Homo sapiens): give pIC50 of CC(C)COC(=O)Nc1cccc(Cc2nn(-c3cnn(CCCC(=O)NC4COC4)c3)ccc2=O)c1 [Example 701]
> 7.00

Supply pIC50 measured with c-Met kinase (recombinant c-Met) (Homo sapiens) for CC(c1cccc(-c2ncc(O[C@H]3CCNC[C@H]3F)cn2)c1)c1nn(-c2cnn(C)c2)ccc1=O (stereo partly shown) [Example 344] .
> 7.00

Specify pIC50 for Cn1cc(-n2ccc(=O)c(Cc3cccc(NC(=O)OCC4(C)COC4)c3)n2)cn1 [Example 543] , system c-Met kinase (recombinant c-Met) (Homo sapiens).
> 7.00

Retrieve pIC50 on c-Met kinase (recombinant c-Met) (Homo sapiens); query COCCOc1cnc(-c2cccc(C(C)c3nn(-c4cnn(C)c4)ccc3=O)c2)nc1 (single isomer, unassigned) [Example 223]
> 7.00

Fetch value of pIC50 on c-Met kinase (recombinant c-Met) (Homo sapiens) for O=C(Nc1cccc(Cc2nn(-c3cc(F)cc(F)c3)ccc2=O)c1)OCCCN1CCOCC1 [Example 521] .
> 7.00

# lookup: c-Met kinase (recombinant c-Met) (Homo sapiens) pIC50, key = CCOc1cnc(-c2cccc(Oc3nn(-c4cnn(C)c4)ccc3=O)c2)nc1 [Example 755]
5.52 to 6.00

Give pIC50 only, for Cn1cc(-n2ccc(=O)c(Cc3cccc(-c4ncc(OCc5ccccn5)cn4)c3)n2)cn1 [Example 354] , using c-Met kinase (recombinant c-Met) (Homo sapiens) data.
> 7.00

Name the recorded pIC50 of CC(C)COC(=O)Nc1cccc(Cc2nn(-c3cnn(CCN)c3)ccc2=O)c1 [Example 648] , assay system c-Met kinase (recombinant c-Met) (Homo sapiens).
> 7.00

For c-Met kinase (recombinant c-Met) (Homo sapiens), give the measured pIC50 of the entry Cn1cc(-n2ccc(=O)c(Cc3cccc(-c4ncc(C5CCOC5)cn4)c3)n2)cn1 (racemic) [compound 199]
> 7.00

Report measured pIC50 on c-Met kinase (recombinant c-Met) (Homo sapiens); entry: Cn1cc(-n2ccc(=O)c(Cc3ccc4nccn4c3)n2)cn1 [Example 46]
5.52 to 6.00

Given CCCn1cc(-n2ccc(=O)c(Cc3cccc(NC(=O)OCC(C)C)c3)n2)cn1 [Example 113] , report its pIC50 on c-Met kinase (recombinant c-Met) (Homo sapiens).
> 7.00

Lab note: record pIC50 of CN1CCC(COc2cnc(-c3cccc(Cc4nn(-c5cc(F)cc(F)c5)ccc4=O)c3)nc2)CC1 [Example 173] tested on c-Met kinase (recombinant c-Met) (Homo sapiens).
> 7.00

Consider the compound CC(c1cccc(-c2ncc(OC(F)F)cn2)c1)c1nn(-c2cnn(C)c2)ccc1=O (single isomer, unassigned) [Example 209] tested on c-Met kinase (recombinant c-Met) (Homo sapiens); state its pIC50.
6.00 to 7.00

Give c-Met kinase (recombinant c-Met) (Homo sapiens) pIC50 for the following compound: CCC(COC(=O)Nc1cccc(Cc2nn(-c3cc(F)cc(F)c3)ccc2=O)c1)OC (racemic) [Example 591]
> 7.00

Look up c-Met kinase (recombinant c-Met) (Homo sapiens) data: pIC50 of COCCOC(=O)Nc1cccc(Cc2nn(-c3cc(F)cc(C#N)c3)ccc2=O)c1 [Example 73] , then report it.
> 7.00

Enter recorded pIC50 with c-Met kinase (recombinant c-Met) (Homo sapiens) for CCOCCn1cnc(-c2cccc(Cc3nn(-c4cnn(C)c4)ccc3=O)c2)n1 [Example 716] here.
6.00 to 7.00

Output reported pIC50 of the compound Cn1cc(-n2ccc(=O)c(Cc3cccc(-c4ncc(CCc5ccccc5)cn4)c3)n2)cn1 [Example 397] on c-Met kinase (recombinant c-Met) (Homo sapiens).
> 7.00

Give measured pIC50 for CCCOC(=O)Nc1cccc(Cc2nn(-c3ccc(OC)nc3)ccc2=O)c1 [Example 32] (c-Met kinase (recombinant c-Met) (Homo sapiens)).
> 7.00

GET pIC50 where system = c-Met kinase (recombinant c-Met) (Homo sapiens) and item = CCOc1cnc(-c2cccc(C(F)c3nn(-c4cnn(C)c4)ccc3=O)c2)nc1 (single isomer, unassigned) [Example 656]
> 7.00

Report pIC50 on c-Met kinase (recombinant c-Met) (Homo sapiens) for this entry: Cn1cc(-n2ccc(=O)c(Cc3cccc(NC(=O)OCC4CCOC(C)(C)C4)c3)n2)cn1 (racemic) [Example 611]
> 7.00

Print c-Met kinase (recombinant c-Met) (Homo sapiens) pIC50 for Cn1cc(-n2ccc(=O)c(Cc3cccc(-c4ncc(OCCn5cccn5)cn4)c3)n2)cn1 [Example 265] .
> 7.00

Specify the recorded pIC50 for Cn1cc(-n2ccc(=O)c(Cc3cccc(NC(=O)OCC4CCOCC4)c3)n2)cn1 [Example 541] , system: c-Met kinase (recombinant c-Met) (Homo sapiens).
> 7.00

Find pIC50 for Cn1cc(-n2ccc(=O)c(Cc3cccc(-c4ncc(CNC5CCCCC5)cn4)c3)n2)cn1 [Example 432] on c-Met kinase (recombinant c-Met) (Homo sapiens) and write it down.
6.00 to 7.00

Name the recorded pIC50 of CCn1cc(-n2ccc(=O)c(C(C)c3cccc(-c4ncc(OCC(F)F)cn4)c3)n2)cn1 (single isomer, unassigned) [Example 294] , assay system c-Met kinase (recombinant c-Met) (Homo sapiens).
> 7.00

Provide pIC50, tested on c-Met kinase (recombinant c-Met) (Homo sapiens), for CC(C)(O)COc1cnc(-c2cccc(Cc3nn(-c4cc(Cl)cc(C#N)c4)ccc3=O)c2)nc1 [Example 371] .
> 7.00

Provide pIC50, system c-Met kinase (recombinant c-Met) (Homo sapiens), entry O=C(Nc1cccc(Cc2nn(-c3cc(F)cc(F)c3)ccc2=O)c1)OCC1CCOCC1 [Example 606]
> 7.00

====

I'd be grateful if you could share measured IC50 for these entries.
target: c-Met kinase (recombinant c-Met) (Homo sapiens, UniProt P08581); construct: 0.27 nM recombinant c-Met; assay: In vitro kinase assay I (homogeneous time-resolved fluorescence tyrosine kinase assay)
Sequence (P08581 25-1390): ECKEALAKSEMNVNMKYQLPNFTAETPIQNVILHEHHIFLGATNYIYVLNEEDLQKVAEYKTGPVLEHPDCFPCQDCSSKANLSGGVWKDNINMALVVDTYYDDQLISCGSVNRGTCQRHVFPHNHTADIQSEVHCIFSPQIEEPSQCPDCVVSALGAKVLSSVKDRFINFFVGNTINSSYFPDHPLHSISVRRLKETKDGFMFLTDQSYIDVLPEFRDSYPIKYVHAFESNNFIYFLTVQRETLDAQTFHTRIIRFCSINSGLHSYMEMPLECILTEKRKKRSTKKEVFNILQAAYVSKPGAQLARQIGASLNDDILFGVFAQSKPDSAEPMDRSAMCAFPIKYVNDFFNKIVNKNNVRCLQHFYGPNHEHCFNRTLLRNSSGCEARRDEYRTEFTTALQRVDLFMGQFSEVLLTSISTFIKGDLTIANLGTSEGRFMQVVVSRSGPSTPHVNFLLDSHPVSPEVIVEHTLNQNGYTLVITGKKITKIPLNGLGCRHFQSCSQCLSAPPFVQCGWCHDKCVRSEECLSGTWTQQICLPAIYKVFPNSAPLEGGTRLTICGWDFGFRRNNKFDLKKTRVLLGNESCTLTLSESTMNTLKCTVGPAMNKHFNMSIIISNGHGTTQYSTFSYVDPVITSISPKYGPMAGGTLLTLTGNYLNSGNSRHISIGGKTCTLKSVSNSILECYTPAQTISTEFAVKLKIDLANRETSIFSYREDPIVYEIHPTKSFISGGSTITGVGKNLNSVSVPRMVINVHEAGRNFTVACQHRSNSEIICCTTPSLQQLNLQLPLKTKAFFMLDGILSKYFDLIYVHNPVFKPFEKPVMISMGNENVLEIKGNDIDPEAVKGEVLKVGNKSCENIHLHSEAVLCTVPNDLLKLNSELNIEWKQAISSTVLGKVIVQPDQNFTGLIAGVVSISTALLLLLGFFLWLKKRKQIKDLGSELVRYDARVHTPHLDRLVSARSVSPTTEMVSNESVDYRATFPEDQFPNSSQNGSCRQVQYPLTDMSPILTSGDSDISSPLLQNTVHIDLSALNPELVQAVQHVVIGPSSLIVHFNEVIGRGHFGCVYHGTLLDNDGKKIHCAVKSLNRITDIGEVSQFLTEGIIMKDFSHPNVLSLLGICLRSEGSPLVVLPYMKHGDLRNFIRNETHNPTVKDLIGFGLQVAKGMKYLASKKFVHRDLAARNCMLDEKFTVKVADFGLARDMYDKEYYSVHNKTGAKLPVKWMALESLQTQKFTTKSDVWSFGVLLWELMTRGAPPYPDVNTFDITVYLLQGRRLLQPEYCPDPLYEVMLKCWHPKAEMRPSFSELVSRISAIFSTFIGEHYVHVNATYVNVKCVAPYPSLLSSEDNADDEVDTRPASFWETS

Please indicate IC50 recorded for `COCCOCCOC(=O)Nc1cccc(Cc2nn(-c3cc(F)c(F)c(F)c3)ccc2=O)c1`
< 100 nM

# return recorded IC50 for entry `COc1cnc(-c2cccc(Cc3nn(-c4cc(F)c(F)c(F)c4)ccc3=O)c2)nc1`
< 100 nM

Give me measured IC50, please, for this compound: `CCOc1cnc(-c2cccc(Cc3nn(-c4cnn(C)c4)ccc3=O)c2F)nc1`
100 to 1000 nM

Specify reported IC50 for the compound shown: CC(c1cccc(-c2ncc(OCC(C)(C)O)cn2)c1)c1nn(-c2ccc(F)c(F)c2)ccc1=O (single isomer, unassigned) [Example 249]
100 to 1000 nM

====

molecular target: c-Met kinase (recombinant c-Met) (Homo sapiens); construct: 0.27 nM recombinant c-Met; assay: In vitro kinase assay I (homogeneous time-resolved fluorescence tyrosine kinase assay); format: biochemical
Endpoint name: IC50

Quick one: give measured IC50 for O=C(Nc1cccc(Cc2nn(-c3cc(F)c(F)c(F)c3)ccc2=O)c1)OCCN1CCC(C(=O)O)CC1 [Example 512]
< 100 nM

Please list IC50 recorded for the molecule Cn1cc(-n2ccc(=O)c(Cc3cccc(NC(=O)OCC4CCOC4)c3)n2)cn1 (racemic) [Example 542]
< 100 nM

Provide only the value of recorded IC50 for CCn1cc(-n2ccc(=O)c(C(C)c3cccc(-c4ncc(OC(C)C)cn4)c3)n2)cn1 (single isomer, unassigned) [Example 293]
< 100 nM

Report measured IC50; entry is CCCNc1cnc(-c2cccc(Cc3nn(-c4cnn(C)c4)ccc3=O)c2)nc1 [Example 451]
< 100 nM

Could you please provide reported IC50 for Cn1cc(-n2ccc(=O)c(Cc3cccc(-c4ncc(CN5CCSCC5)cn4)c3)n2)cn1 [Example 428] ? Thanks!
< 100 nM

Name the recorded IC50 of the item Cn1cc(-n2ccc(=O)c(Cc3ccc4cnccc4c3)n2)cn1 [Example 74] in your answer.
100 to 1000 nM

Return reported IC50. Input molecule: O=c1ccn(-c2ccc(F)c(F)c2)nc1Cc1cccc(-c2ncc(O)cn2)c1 [Example 188]
100 to 1000 nM

State its IC50: CCC(=O)Nc1cnc(-c2cccc(Cc3nn(-c4cnn(C)c4)ccc3=O)c2)nc1 [Example 460]
< 100 nM

Name the recorded IC50 of the item Cn1cc(-n2ccc(=O)c(Cc3cccc(-c4ncc(N5CCCC(C#N)C5)cn4)c3)n2)cn1 (racemic) [Example 446] in your answer.
< 100 nM

Specify IC50 for CCn1cc(-n2ccc(=O)c(Cc3cccc(NC(=O)OCC(C)C)c3)n2)cn1 [Example 110] and stop.
< 100 nM

Input Cn1cc(-n2ccc(=O)c(Cc3cccc(-c4ncc(OC(F)F)cn4)c3)n2)cn1 [Example 386] , output reported IC50.
< 100 nM

For the molecule Cn1cc(-n2ccc(=O)c(Cc3cccc(-c4ncc(-c5cscn5)cn4)c3)n2)cn1 [Example 422] , give its measured IC50 value.
< 100 nM

Please give measured IC50 of the following entry: CCOc1cnc(-c2cccc(Cc3nn(-c4cnn(CCO)c4)ccc3=O)c2)nc1 [Example 193]
< 100 nM

Fill in reported IC50 for this entry: Cn1cc(-n2ccc(=O)c(Cc3cccc(NC(=O)OCCN4CCS(=O)(=O)CC4)c3)n2)cn1 [Example 567]
< 100 nM

Tell me its IC50 given Cn1cc(-n2ccc(=O)c(Cc3cccc(NC(=O)OCC4CCCC4)c3)n2)cn1 [Example 539] as the entry.
< 100 nM

Name the recorded IC50 of the molecule listed here: Cn1cc(-n2ccc(=O)c(Cc3cccc(-c4ncc(OC5CCOC5)cn4)c3)n2)cn1 (racemic) [Example 276]
< 100 nM
